Target: 3',5'-cyclic-AMP phosphodiesterase 4D (Homo sapiens); note: assay procedure not described here
Sequence (Q08499 whole entry): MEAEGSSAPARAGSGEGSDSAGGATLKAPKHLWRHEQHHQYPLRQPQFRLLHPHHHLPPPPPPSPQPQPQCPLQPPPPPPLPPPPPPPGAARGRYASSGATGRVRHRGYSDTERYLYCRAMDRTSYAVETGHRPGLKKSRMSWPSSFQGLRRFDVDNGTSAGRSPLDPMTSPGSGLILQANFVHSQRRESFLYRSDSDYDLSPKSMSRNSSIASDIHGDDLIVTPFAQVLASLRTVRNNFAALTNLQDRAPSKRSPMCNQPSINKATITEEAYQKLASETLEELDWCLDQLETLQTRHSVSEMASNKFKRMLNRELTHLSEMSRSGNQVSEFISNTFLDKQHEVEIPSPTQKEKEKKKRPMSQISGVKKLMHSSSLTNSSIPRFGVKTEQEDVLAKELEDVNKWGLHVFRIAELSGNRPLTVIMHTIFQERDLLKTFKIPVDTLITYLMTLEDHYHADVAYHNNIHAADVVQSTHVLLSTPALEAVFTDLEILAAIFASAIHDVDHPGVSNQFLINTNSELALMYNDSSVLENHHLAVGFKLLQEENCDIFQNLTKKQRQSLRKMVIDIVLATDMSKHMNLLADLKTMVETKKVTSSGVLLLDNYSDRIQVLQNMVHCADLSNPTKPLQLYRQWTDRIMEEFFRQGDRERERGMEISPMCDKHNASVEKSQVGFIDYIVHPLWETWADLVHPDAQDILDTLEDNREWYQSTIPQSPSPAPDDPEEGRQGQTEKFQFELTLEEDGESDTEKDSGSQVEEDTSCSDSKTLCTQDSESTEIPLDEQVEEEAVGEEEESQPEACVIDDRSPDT
Type: functional
metric_name: AC50

>  <molecule>
CN1c2ccccc2C(NCCCCCCC(=O)O)c2ccc(Cl)cc2S1(=O)=O (centres undefined)

>  <subject_of_test>
3',5'-cyclic-AMP phosphodiesterase 4D (Homo sapiens); note: assay procedure not described here

>  <val>
> 30 µM

$$$$
>  <molecule>
CC(C)CC(N(C)C)C1(c2ccc(Cl)cc2)CCC1 (centres undefined)

>  <subject_of_test>
3',5'-cyclic-AMP phosphodiesterase 4D (Homo sapiens); note: assay procedure not described here

>  <val>
> 30 µM

$$$$
>  <molecule>
COCCCOc1ccnc(C[S+]([O-])c2nc3ccccc3[nH]2)c1C (centres undefined)

>  <subject_of_test>
3',5'-cyclic-AMP phosphodiesterase 4D (Homo sapiens); note: assay procedure not described here

>  <val>
8 µM

$$$$
>  <molecule>
CC1(C)C(C=C(Cl)Cl)C1C(=O)OCc1cccc(Oc2ccccc2)c1 (centres undefined)

>  <subject_of_test>
3',5'-cyclic-AMP phosphodiesterase 4D (Homo sapiens); note: assay procedure not described here

>  <val>
> 30 µM

$$$$
>  <molecule>
CN(c1nccc(=O)[nH]1)C1CCN(c2nc3ccccc3n2Cc2ccc(F)cc2)CC1

>  <subject_of_test>
3',5'-cyclic-AMP phosphodiesterase 4D (Homo sapiens); note: assay procedure not described here

>  <val>
13 µM

$$$$
>  <molecule>
Cc1cnc(NC(=O)C2=C(O)c3ccccc3S(=O)(=O)N2C)s1

>  <subject_of_test>
3',5'-cyclic-AMP phosphodiesterase 4D (Homo sapiens); note: assay procedure not described here

>  <val>
> 10 µM

$$$$
>  <molecule>
Nc1ccc(C(=O)O)c(O)c1

>  <subject_of_test>
3',5'-cyclic-AMP phosphodiesterase 4D (Homo sapiens); note: assay procedure not described here

>  <val>
> 30 µM

$$$$
>  <molecule>
C[C@@H]1C[C@H]2[C@@H]3C[C@H](F)C4=CC(=O)C=C[C@]4(C)[C@@]3(F)[C@@H](O)C[C@]2(C)[C@H]1C(=O)CO

>  <subject_of_test>
3',5'-cyclic-AMP phosphodiesterase 4D (Homo sapiens); note: assay procedure not described here

>  <val>
> 30 µM

$$$$
>  <molecule>
Cc1ccc(NC(=O)C2(c3ccc4c(c3)OC(F)(F)O4)CC2)nc1-c1cccc(C(=O)O)c1

>  <subject_of_test>
3',5'-cyclic-AMP phosphodiesterase 4D (Homo sapiens); note: assay procedure not described here

>  <val>
15 µM

$$$$

----------
Biological target: UniProtKB P28223
Sequence (P28223 whole entry): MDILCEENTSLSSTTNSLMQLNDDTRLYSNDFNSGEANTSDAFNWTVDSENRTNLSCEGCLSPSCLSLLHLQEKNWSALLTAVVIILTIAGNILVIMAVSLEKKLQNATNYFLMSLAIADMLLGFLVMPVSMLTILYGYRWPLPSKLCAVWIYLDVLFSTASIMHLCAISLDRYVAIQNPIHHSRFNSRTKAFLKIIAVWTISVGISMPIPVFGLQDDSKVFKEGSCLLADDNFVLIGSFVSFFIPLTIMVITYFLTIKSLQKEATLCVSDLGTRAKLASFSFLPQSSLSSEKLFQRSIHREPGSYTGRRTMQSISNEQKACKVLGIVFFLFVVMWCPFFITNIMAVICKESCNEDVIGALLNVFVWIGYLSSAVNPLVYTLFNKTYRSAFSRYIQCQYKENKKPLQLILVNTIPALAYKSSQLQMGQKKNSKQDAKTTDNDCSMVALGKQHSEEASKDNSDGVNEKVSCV
Format: functional, cell-based
This listing pairs molecules with measured AC50.
metric_name: AC50

>  <molecule>
CCOC(=O)NNc1ccc(N(CC)CC(C)O)nn1 (stereo not given) [CADRALAZINE]

>  <val>
> 30 µM

$$$$
>  <molecule>
CC(=O)Oc1ccccc1C(=O)Nc1ncc([N+](=O)[O-])s1 [NITAZOXANIDE]

>  <val>
15 µM

$$$$
>  <molecule>
CC(=O)Nc1c(I)c(C(=O)N[C@H]2C(O)O[C@H](CO)[C@@H](O)[C@@H]2O)c(I)c(N(C)C(C)=O)c1I (stereo not given in full) [METRIZAMIDE]

>  <val>
> 10 µM

$$$$
>  <molecule>
CC1(C)C(C=C(Cl)Cl)C1C(=O)OCc1cccc(Oc2ccccc2)c1 (stereo not given) [PERMETHRIN]

>  <val>
> 10 µM

$$$$
>  <molecule>
N#Cc1ccccc1-c1cc(-c2ccccn2)cn(-c2ccccc2)c1=O

>  <val>
> 30 µM

$$$$
>  <molecule>
O=C(O)CSCC(=O)NC1CCSC1=O (stereo not given) [ERDOSTEINE]

>  <val>
> 30 µM

$$$$
>  <molecule>
Cc1ccc(=O)n(-c2ccccc2)c1 [PIRFENIDONE]

>  <val>
> 30 µM

$$$$
>  <molecule>
CO[C@@]1(NC(=O)Cc2cccs2)C(=O)N2C(C(=O)O)=C(COC(N)=O)CS[C@@H]21 [CEFOXITIN]

>  <val>
> 30 µM

$$$$
>  <molecule>
CC(C)c1cc2c(cc1S(=O)(=O)O)[C@@]1(C)CCC[C@@](C)(C(=O)O)[C@@H]1CC2 [ECABET]

>  <val>
> 30 µM

$$$$
>  <molecule>
C=C[C@@]1(C)CC(=O)[C@]2(O)[C@@]3(C)[C@@H](O)CCC(C)(C)[C@@H]3[C@H](OC(=O)CCN(C)C)[C@H](OC(C)=O)[C@@]2(C)O1

>  <val>
> 30 µM

$$$$
